Assay: Pharmacokinetics and oral bioavailability of D8.3.p1 and D10.1 in Balb/C female mice (PO, SQ, IV)
Type: in vivo
Conditions: D8.3.p1 SQ 5 mg/kg, mean n=3; read-out: Max concentration Cmax
Where a SMILES comes first, the peptide text is derived from it. [ ]: non-standard residue; d: D form. dNMeL = CN[C@H](CC(C)C)C(=O)O
Experimental Readout: Cmax (nM)

CC[C@@H](C)[C@H]1NC(=O)[C@@H](CC(C)C)NC(=O)[C@@H](CC(C)C)N(C)C(=O)[C@@H]2CCCN2C(=O)[C@@H](C(C)C)NC(=O)[C@H](CC(C)C)NC(=O)[C@@H](CC(C)C)N(C)C(=O)[C@@H]2CCCN2C1=O [Design D8.3.p1, DLEU DVAL PRO *DLEU DLEU DILE PRO *DLEU] (cyclo(L[dV]P[dNMeL][dL][dI]P[dNMeL])) : 950

----------
Details: PAMPA
Where a SMILES comes first, the peptide text is derived from it. [ ]: non-standard residue; d: D form. dNMeF = CN[C@H](Cc1ccccc1)C(=O)O; NMeL = CN[C@@H](CC(C)C)C(=O)O; dNMeL = CN[C@H](CC(C)C)C(=O)O
Experimental Readout: PAMPA_R3

CC(C)C[C@@H]1C(=O)N[C@@H](C(C)C)C(=O)N[C@@H](C)C(=O)N2CCC[C@H]2C(=O)N2CCC[C@@H]2C(=O)N[C@@H](C(C)C)C(=O)N[C@@H](C)C(=O)N(C)[C@@H](CC(C)C)C(=O)N1C [Design D8.22, ALA PRO DPRO VAL ALA *LEU *DLEU VAL] (cyclo(A[NMeL][dNMeL]VAP[dP]V)) : 1.57E-07
CC(C)C[C@@H]1NC(=O)[C@@H](Cc2ccccc2)N(C)C(=O)[C@H](C(C)C)NC(=O)[C@H](C)NC(=O)[C@@H](C)NC(=O)[C@@H](Cc2ccccc2)N(C)C(=O)[C@@H]2CCCN2C(=O)[C@H](C(C)C)NC(=O)[C@@H]2CCCN2C(=O)[C@@H](C)NC1=O [Design D10.48] (cyclo(AV[dNMeF]L[dA]PVP[dNMeF][dA])) : 4.59E-07

----------
Assay: Pharmacokinetics and oral bioavailability of D8.3.p1 and D10.1 in Balb/C female mice (PO, SQ, IV)
Type: in vivo
Settings: female, Balb/C, mouse, plasma, po, 12.2 mg/kg, D10.1 PO 12.2 mg/kg, individual mice M1, M2, M3; read-out: Cmax
Experimental Readout: Cmax

CC[C@H](C)[C@@H]1NC(=O)[C@@H](CC(C)C)NC(=O)[C@H](CC(C)C)N(C)C(=O)[C@H](Cc2ccccc2)NC(=O)CN(C)C(=O)[C@@H]2CCCN2C(=O)[C@H](C(C)C)NC(=O)[C@H](Cc2ccccc2)N(C)C(=O)[C@H]2CCCN2C(=O)[C@H](CC(C)C)NC1=O : 2490 nM

----------
Reported values of PAMPA_R1 for individual entries
Conditions: PAMPA
Where a SMILES comes first, the peptide text is derived from it. [ ]: non-standard residue; d: D form. NMeL = CN[C@@H](CC(C)C)C(=O)O; dNMeL = CN[C@H](CC(C)C)C(=O)O; NMeV = CN[C@H](C(=O)O)C(C)C; NMeA = CN[C@@H](C)C(=O)O; Aib = CC(C)(N)C(=O)O
Experimental Readout: PAMPA_R1

CC[C@@H](C)[C@H]1NC(=O)[C@@H](CC(C)C)NC(=O)C(C)(C)NC(=O)[C@@H]2CCCN2C(=O)[C@@H]([C@H](C)CC)NC(=O)[C@@H](CC(C)C)NC(=O)C(C)(C)NC(=O)[C@@H]2CCCN2C1=O [Design D8.2, PRO AIB DLEU DILE PRO AIB DLEU DILE] (cyclo([Aib][dL][dI]P[Aib][dL][dI]P)) : 7.36E-06
CC(C)C[C@@H]1C(=O)N(C)[C@@H](Cc2ccccc2)C(=O)N[C@@H](C(C)C)C(=O)N2CCC[C@H]2C(=O)NCC(=O)N2CCC[C@H]2C(=O)N(C)[C@H](CC(C)C)C(=O)N[C@@H](C(C)C)C(=O)N[C@H](CC(C)C)C(=O)N1C (single isomer, unassigned) [Design D9.43.p1] : 8.93E-07
CC[C@@H](C)[C@H]1NC(=O)[C@@H]2CCCN2C(=O)[C@@H](Cc2ccccc2)NC(=O)[C@H](CC(C)C)N(C)C(=O)[C@H](C)NC(=O)[C@H]2CCCN2C(=O)[C@@H]2CCCN2C(=O)[C@H](CC(C)C)NC(=O)[C@H](CC(C)C)N(C)C(=O)[C@H](C)N(C)C1=O [Design D10.26] (cyclo(A[NMeL][dF]P[dI][NMeA][NMeL]LP[dP])) : 1.40E-06
CC[C@H](C)[C@@H]1NC(=O)[C@H]2CCCN2C(=O)[C@H](CC(C)C)N(C)C(=O)[C@H](CC(C)C)NC(=O)[C@H](C(C)C)NC(=O)[C@@H]2CCCN2C(=O)[C@H](CC(C)C)N(C)C(=O)[C@H](C(C)C)NC(=O)[C@@H](C(C)C)NC1=O [Design D9.39, DVAL VAL *LEU PRO VAL LEU *LEU DPRO ILE] (cyclo(I[dV]V[NMeL]PVL[NMeL][dP])) : 5.51E-07
CC[C@H](C)[C@@H]1NC(=O)[C@H](C(C)C)N(C)C(=O)[C@H]2CCCN2C(=O)[C@H]([C@@H](C)CC)NC(=O)[C@@H](CC(C)C)N(C)C(=O)[C@@H](C)NC(=O)[C@@H]2CCCN2C(=O)[C@H]2CCCN2C(=O)[C@H](CC(C)C)NC(=O)[C@@H](Cc2ccccc2)NC(=O)[C@H](CC(C)C)NC(=O)[C@H]2CCCN2C1=O [Design D12.3] (cyclo([dA][dNMeL]I[dP][NMeV]I[dP]L[dF]L[dP]P)) : 7.65E-07
CC(C)C[C@@H]1C(=O)N(C)[C@H](CC(C)C)C(=O)N[C@H](CC(C)C)C(=O)N[C@@H](C(C)C)C(=O)N2CCC[C@@H]2C(=O)N2CCC[C@H]2C(=O)N[C@H](CC(C)C)C(=O)N[C@@H](C(C)C)C(=O)N1C [Design D8.23, DLEU VAL *DLEU *DLEU DLEU VAL DPRO PRO] (cyclo([dL]V[dNMeL][dNMeL][dL]V[dP]P)) : 1.18E-06
CC[C@@H](C)[C@H]1NC(=O)[C@H](CC(C)C)N(C)C(=O)[C@H]2CCCN2C(=O)[C@H](CC(C)C)NC(=O)[C@@H](Cc2ccccc2)N(C)C(=O)[C@H](CC(C)C)N(C)C(=O)[C@@H](C(C)C)NC(=O)[C@H](C)NC(=O)[C@H]2CCCN2C(=O)[C@@H]2CCCN2C1=O (single isomer, unassigned) [Design D10.60.p1] : 6.58E-07
CC(C)C[C@@H]1NC(=O)[C@@H](CC(C)C)NC(=O)[C@H]2CCCN2C(=O)[C@H](CC(C)C)NC(=O)[C@@H](CC(C)C)NC(=O)[C@H](CC(C)C)NC(=O)[C@@H]2CCCN2C(=O)[C@@H](C)NC1=O [Design D8.1, DLEU LEU DPRO DLEU LEU DALA PRO LEU] (cyclo(L[dA]PL[dL]L[dP][dL])) : 7.08E-06
